Biological target: Endothelin-1 receptor (Homo sapiens)
Sequence (P25101 whole entry): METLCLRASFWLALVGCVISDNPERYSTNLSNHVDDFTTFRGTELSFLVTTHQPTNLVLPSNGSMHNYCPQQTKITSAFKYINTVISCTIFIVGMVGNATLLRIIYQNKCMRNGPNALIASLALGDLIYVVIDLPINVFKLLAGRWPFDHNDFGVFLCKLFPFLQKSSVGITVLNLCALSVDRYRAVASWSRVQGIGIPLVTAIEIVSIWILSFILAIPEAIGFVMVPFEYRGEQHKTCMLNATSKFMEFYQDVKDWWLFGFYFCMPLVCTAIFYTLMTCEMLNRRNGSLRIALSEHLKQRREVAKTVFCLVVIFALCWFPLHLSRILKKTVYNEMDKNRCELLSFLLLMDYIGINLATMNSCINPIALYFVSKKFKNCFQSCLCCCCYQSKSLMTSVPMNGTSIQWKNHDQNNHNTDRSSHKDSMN
Assay: Antagonist activity at human ETA receptor transfected in CHO cell membrane assessed as inhibition of 125I-labelled ET-1 binding to receptor incubated for 3 hrs by competition binding assay
Type: functional, cell membranes
measure: pIC50
// pIC50 is dimensionless: -log10 of concentration (M)

Any idea what pIC50 was measured for CCCOc1ccc([C@H]2[C@H](C(=O)O)[C@@H](c3ccc4c(c3)OCO4)CN2CC(=O)Nc2c(CC)cccc2CC)cc1 [A-192621] ?
5.37

---

Would you kindly list pIC50 for each of these molecules?
Target: Endothelin receptor type B (Homo sapiens)
Sequence (P24530 whole entry): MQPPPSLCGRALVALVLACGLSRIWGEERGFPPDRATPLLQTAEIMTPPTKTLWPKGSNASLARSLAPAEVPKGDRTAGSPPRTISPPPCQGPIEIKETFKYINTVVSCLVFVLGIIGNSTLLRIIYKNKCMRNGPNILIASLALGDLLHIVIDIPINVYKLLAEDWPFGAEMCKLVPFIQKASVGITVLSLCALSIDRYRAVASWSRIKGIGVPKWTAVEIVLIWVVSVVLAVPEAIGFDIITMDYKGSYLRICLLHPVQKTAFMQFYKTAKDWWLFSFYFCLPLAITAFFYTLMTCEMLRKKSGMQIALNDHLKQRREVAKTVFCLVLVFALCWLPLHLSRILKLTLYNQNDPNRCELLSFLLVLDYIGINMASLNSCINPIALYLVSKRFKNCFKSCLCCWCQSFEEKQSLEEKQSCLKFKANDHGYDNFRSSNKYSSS
Test: Antagonist activity at human ETB receptor transfected in CHO cell membrane […]
Reminder that pIC50 means the negative base-10 logarithm of the concentration expressed in mol/L.

Dear colleague, I am looking for the recorded pIC50 of the following molecule: CCCOc1ccc([C@H]2[C@H](C(=O)O)[C@@H](c3ccc4c(c3)OCO4)CN2CC(=O)Nc2c(CC)cccc2CC)cc1
9.23

State the recorded pIC50 for this entry: CCCCCS(=O)(=O)N(CCC)CCN1C[C@H](c2ccc3c(c2)OCO3)[C@@H](C(=O)O)[C@@H]1c1ccc(OC)c(F)c1
8.95

---

target: Endothelin-1 receptor (Rattus norvegicus); experiment: Antagonist activity at ETA receptor in rat MMQ cells assessed as inhibition of phosphatidylinositol hydrolysis by myo-[3H]inositol radioactivity based assay
Sequence (P26684 whole entry): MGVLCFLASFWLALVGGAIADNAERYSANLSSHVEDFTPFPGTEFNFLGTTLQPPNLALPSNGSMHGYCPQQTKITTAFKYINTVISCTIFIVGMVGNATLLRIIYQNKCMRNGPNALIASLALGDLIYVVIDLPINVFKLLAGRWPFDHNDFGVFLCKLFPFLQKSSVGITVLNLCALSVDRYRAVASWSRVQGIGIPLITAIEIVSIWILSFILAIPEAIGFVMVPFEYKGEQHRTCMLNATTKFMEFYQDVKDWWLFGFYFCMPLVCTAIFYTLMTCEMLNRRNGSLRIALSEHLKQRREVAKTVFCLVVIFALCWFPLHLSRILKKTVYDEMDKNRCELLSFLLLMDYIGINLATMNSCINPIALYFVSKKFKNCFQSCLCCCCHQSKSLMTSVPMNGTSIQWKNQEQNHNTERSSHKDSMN
measure: pIC50
Quick note: pIC50 means taking -log10 of the concentration in moles per liter.

# lookup: pIC50 of CCCCN(CCCC)C(=O)CN1C[C@H](c2cc(OC)c3c(c2)OCO3)[C@@H](C(=O)O)[C@@H]1CC(C)(C)CCC
9.23
